# system_name: IDH1 R132C (Homo sapiens, UniProt O75874, R132C)
# Sequence (O75874 whole entry R132C): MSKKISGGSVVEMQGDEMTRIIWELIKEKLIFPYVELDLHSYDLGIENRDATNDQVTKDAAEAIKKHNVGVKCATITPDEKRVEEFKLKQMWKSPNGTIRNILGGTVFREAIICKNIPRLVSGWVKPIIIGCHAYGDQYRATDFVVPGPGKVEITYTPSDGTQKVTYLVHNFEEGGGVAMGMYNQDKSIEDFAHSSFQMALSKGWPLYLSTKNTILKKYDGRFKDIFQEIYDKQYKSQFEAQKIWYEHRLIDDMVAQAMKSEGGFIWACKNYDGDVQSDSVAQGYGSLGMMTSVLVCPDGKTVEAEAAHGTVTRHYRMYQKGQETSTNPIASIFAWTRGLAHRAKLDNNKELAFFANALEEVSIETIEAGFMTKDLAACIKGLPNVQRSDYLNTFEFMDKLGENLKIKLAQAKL
# assay_summary: IDH1 R132C enzymatic assay (NADPH depletion coupled to diaphorase/resazurin)
# Format: biochemical
# particulars: IDH1 R132C enzymatic inhibition, IC50 class
pIC50: −log10 of the molar value.
pIC50 values for the compounds below.
quantity_name: pIC50

# compound, recorded_value
rows = [
    ("CNc1ccccc1-n1c2c(cc(-c3nc(-c4ccc(Cl)cc4)cs3)c1=O)C(=O)CC(C)(C)C2", "5.30 to 6.00"),
    ("CCc1cccc(CC)c1-n1c(CC(C)C)c(C(=O)NC[C@@H](C)O)cc(-c2nc(-c3ccc(Cl)cc3)cs2)c1=O", "> 6.52"),
    ("CCc1cccc(CC)c1-n1c(C=C(C)C)c(C(=O)N2C(C)CNCC2C(=O)O)cc(-c2nc(-c3ccc(Cl)cc3)cs2)c1=O (centres unmarked)", "> 6.52"),
    ("COc1ccc(OC)c(-n2c3c(cc(-c4ccn(-c5ccccc5)n4)c2=O)C(=O)CC(C)(C)C3)c1", "5.30 to 6.00"),
    ("CCc1ncc(OC)cc1-n1c(C=C(C)C)c(C(=O)N2CCNCC2)cc(-c2nc(-c3ccc(C(F)(F)F)cc3)cs2)c1=O", "> 6.52"),
    ("CCc1cccc(CC)c1-n1c2c(cc(-c3nc(-c4cccc(C)c4)cs3)c1=O)C(=O)CC(C)(C)C2", "5.30 to 6.00"),
    ("COc1ccc(OC)c(-n2c3c(cc(-c4nc(-c5ccc(Cl)cc5)cs4)c2=O)C(=O)CC3)c1", "4.70 to 5.30"),
    ("CCc1cccc(CC)c1-n1c(C=C(C)C)c(C(=O)N2C[C@H]3CC[C@@H](C2)N3)cc(-c2nc(-c3ccc(Cl)cc3)cs2)c1=O", "> 6.52"),
    ("CCc1cccc(C(=O)O)c1-n1c2c(cc(-c3nc(-c4ccc(Cl)cc4)cs3)c1=O)C(=O)CC(C)(C)C2", "5.30 to 6.00"),
    ("CCc1cccc(CC)c1-n1c(C(C)C)c(C(=O)N2CCNC(CO)C2)cc(-c2nc(-c3ccc(Cl)cc3)cs2)c1=O (centres unmarked)", "> 6.52"),
    ("CC1(C)CC(=O)c2cc(-c3nc(-c4ccc(Cl)cc4)cs3)c(=O)n(-c3ccccc3C(=O)O)c2C1", "4.70 to 5.30"),
    ("CCc1cccc(CC)c1-n1c(CC(C)C)c(C(=O)N2CCCC2CO)cc(-c2nc(-c3ccc(Cl)cc3)cs2)c1=O (centres unmarked)", "5.30 to 6.00"),
    ("CC(C)=Cc1c(C(=O)N2CCNCC2)cc(-c2nc(-c3ccc(Cl)cc3)cs2)c(=O)n1-c1ccccc1OC(C)C", "> 6.52"),
    ("CCOc1ccc(Cl)c(-n2c(C=C(C)C)c(C(=O)N3CCNCC3)cc(-c3nc(-c4ccc(Cl)cc4)cs3)c2=O)c1", "> 6.52"),
    ("CCc1cccc(CC)c1-n1c(C)c(C(=O)N2CCN(C)CC2)cc(-c2nc(-c3ccc(Cl)cc3)cs2)c1=O", "6.00 to 6.52"),
    ("CCc1cccc(CC)c1-n1c(CC(C)C)c(C(=O)N2CCN[C@@H](C(=O)OC)C2)cc(-c2nc(-c3ccc(Cl)cc3)cs2)c1=O", "> 6.52"),
    ("CCc1cccc(CC)c1-n1c(C)c(C(=O)NCCOC)cc(-c2nc(-c3ccc(Cl)cc3)cs2)c1=O", "6.00 to 6.52"),
    ("CCc1cccc(CC)c1-n1c2c(cc(-c3nc(-c4ccccc4Cl)cs3)c1=O)C(=O)CC(C)(C)C2", "5.30 to 6.00"),
    ("CC(C)COc1ccccc1-n1c2c(cc(-c3nc(-c4ccc(Cl)cc4)cs3)c1=O)C(=O)CC(C)(C)C2", "6.00 to 6.52"),
    ("CCc1ncc(OC)cc1-n1c(C=C(C)C)c(C(=O)N2CCNCC2)cc(-c2nc(-c3ccc(C(F)(F)F)nc3)cs2)c1=O", "5.30 to 6.00"),
    ("CCc1cccc(CC)c1-n1c(C)c(C(=O)NC(C)(C)C)cc(-c2nc(-c3ccc(Cl)cc3)cs2)c1=O", "5.30 to 6.00"),
    ("CCc1cccc(CC)c1-n1c(C)c(C(=O)N(C)C)cc(-c2nc(-c3ccc(Cl)cc3)cs2)c1=O", "5.30 to 6.00"),
    ("COc1ccc(OC)c(-n2c(=O)c(-c3nc(-c4ccc(Cl)cc4)cs3)cc3c(OC)nccc32)c1", "5.30 to 6.00"),
]
